Biological target: hCMV UL130 + UL131A (co-expressed in HEK293T cells) (human cytomegalovirus, UniProt P16772 1-214; F5HET4 19-129)
Assay: cell-based or functional assay
Reported metric: 50% Neutralization ARPE

[in] Fill in the blank: the reported 50% Neutralization ARPE of 8L13 (antibody, V domains shown) VH: QVQLLESGGGVVQPGRSLRLSCAASGFTFSNYGMHWVRQAPGKGLEWVAVIWNDGSKKYYAESVKGRFTISRDNSKNTVYLQMNSLRAEDTAVYYCARDEGVQMVFAMPDYGMDVWGQGTTVTVSS VL: SYELTQPPSVSVSPGQTASITCSGDKLGDKFACWYQQRPGQSPILVIYQDSKRPSGIPERFSGSNSGNTATLTIRGTQAMDEADYYCQAWDSSTAHYVFGTGTKVTVL is ____.
[out] < 0.01 µg/mL

[in] Fill in the blank: the reported 50% Neutralization ARPE of 4N10 (antibody, V domains shown) VH: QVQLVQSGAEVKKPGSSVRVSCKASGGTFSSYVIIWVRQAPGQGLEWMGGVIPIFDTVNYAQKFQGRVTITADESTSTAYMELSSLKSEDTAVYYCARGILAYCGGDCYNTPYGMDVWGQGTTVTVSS VL: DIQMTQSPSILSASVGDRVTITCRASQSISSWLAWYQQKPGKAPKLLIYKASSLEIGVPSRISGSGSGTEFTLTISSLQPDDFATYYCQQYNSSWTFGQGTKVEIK is ____.
[out] < 0.001 µg/mL

Each recorded value in this set is attributed to patent US20170129940A1.
